target: KDR (VEGFR2) (Homo sapiens, UniProt P35968); assay: KDR (VEGFR2) in vitro kinase activity assay (HTRF kinEASE TK); assay type: biochemical; details: compound 100 nM; read-out: VEGFR2 inhibition rate, 100 nM
Sequence (P35968 20-1356): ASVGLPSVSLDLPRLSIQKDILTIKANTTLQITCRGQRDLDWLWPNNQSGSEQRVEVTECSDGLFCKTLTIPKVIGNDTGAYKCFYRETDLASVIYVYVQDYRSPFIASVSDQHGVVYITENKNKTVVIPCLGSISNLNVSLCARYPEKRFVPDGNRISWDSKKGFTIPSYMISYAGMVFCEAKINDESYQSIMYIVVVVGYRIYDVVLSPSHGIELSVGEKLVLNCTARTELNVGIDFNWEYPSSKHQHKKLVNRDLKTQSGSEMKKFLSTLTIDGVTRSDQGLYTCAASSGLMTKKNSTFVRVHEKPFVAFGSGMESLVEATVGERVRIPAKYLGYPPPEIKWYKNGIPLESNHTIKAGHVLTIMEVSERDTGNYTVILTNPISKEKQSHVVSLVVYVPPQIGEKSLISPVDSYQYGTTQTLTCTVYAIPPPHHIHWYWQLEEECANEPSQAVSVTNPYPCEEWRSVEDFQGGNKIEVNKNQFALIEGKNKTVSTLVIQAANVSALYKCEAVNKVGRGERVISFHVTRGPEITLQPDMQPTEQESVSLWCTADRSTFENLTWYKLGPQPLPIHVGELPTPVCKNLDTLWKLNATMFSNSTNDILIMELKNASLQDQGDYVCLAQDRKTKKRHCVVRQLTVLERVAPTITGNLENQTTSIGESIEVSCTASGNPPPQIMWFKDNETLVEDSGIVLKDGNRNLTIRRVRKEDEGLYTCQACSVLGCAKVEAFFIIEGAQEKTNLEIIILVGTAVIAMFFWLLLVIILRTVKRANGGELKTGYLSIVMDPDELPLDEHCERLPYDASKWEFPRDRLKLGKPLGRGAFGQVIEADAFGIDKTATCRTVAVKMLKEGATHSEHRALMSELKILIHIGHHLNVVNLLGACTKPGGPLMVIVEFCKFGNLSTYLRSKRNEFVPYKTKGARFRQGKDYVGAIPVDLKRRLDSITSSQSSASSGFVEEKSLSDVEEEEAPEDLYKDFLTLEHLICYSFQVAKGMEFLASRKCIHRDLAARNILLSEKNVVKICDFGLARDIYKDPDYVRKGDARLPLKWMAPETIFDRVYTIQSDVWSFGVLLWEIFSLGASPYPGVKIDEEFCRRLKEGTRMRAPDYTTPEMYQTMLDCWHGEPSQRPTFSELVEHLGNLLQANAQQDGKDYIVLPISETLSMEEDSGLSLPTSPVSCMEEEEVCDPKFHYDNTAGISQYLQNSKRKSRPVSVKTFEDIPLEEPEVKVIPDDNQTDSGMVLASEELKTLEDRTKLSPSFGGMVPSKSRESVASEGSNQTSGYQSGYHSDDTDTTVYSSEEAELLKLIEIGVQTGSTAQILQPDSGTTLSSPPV
measurement.type: inhibition at 0.1 µM (%)
One number for each entry, in %.

Answered examples (3):
Cn1cc(-c2cncc(N[C@H]3CCc4c(Nc5cc(C(C)(C)C)on5)cccc43)c2)cn1 [Compound 41]
63.9
Cn1cc2ncc(O[C@H]3CCc4c(C(=O)Nc5nn(C)c6cccc(F)c56)cccc43)cc2n1 [Compound 76aw]
101
CN(c1cnc2cn(C)nc2c1)[C@H]1CCc2c(C(=O)Nc3cncc(Cl)c3)cccc21 [Compound 80k]
91.9

Batch: inhibition at 0.1 µM for all items listed.
1. Cn1cc(-c2cncc(N[C@H]3CCc4c(C(=O)Nc5cncc(Cl)c5)cccc43)c2)cn1 [Compound 14aa]
2. CN(c1cncc(-c2cnn(C)c2)c1)[C@H]1CCc2c(C(=O)Nc3cccc(C4CC4)c3)cccc21 [Compound 22a]
3. CN1CCc2ccc(NC(=O)c3cccc4c3CC[C@@H]4Nc3cncc(-c4cnn(C)c4)c3)cc2C1 [Compound 14ap]
4. CN1CCc2nc(NC(=O)c3cccc4c3CC[C@@H]4Oc3cncc(-c4cnn(C)c4)c3)sc2C1 [Compound 19f]
5. Cn1cc2ncc(N[C@H]3CCc4c(C(=O)Nc5nc(C6CC6)cs5)cccc43)cc2n1 [Compound 74h]
6. Cn1cc(-c2cnc(N)c(O[C@H]3CCc4c(C(=O)Nc5cccc(C6CC6)c5)cccc43)c2)cn1 [Compound 4]

99.6
96.4
66.2
88.9
94.9
100

Batch: inhibition at 0.1 µM for all items listed.
1. Cn1cc2ncc(O[C@H]3CCc4c(C(=O)Nc5nn(C)c6ccccc56)cccc43)cc2n1 [Compound 76al]
2. CN(c1cncc(-c2cnn(C)c2)c1)[C@H]1CCc2c(C(=O)Nc3cncc(Cl)c3)cccc21 [Compound 21]

[95.6, 62.6]

Batch: inhibition at 0.1 µM for all items listed.
1. Cn1ncc2ncc(N[C@H]3CCc4c(Nc5cc(C(C)(C)C)on5)cccc43)nc21 [Compound 86]
2. Cn1cc2ncc(O[C@H]3CCc4c(C(=O)Nc5cncc(Cl)c5)cccc43)cc2n1 [Compound 76ai]
3. Cc1cncc(NC(=O)c2cccc3c2CC[C@@H]3Oc2cncc(-c3cnn(C)c3)c2)c1 [Compound 19j]
4. CN(c1cnc2cn(C)nc2c1)[C@H]1CCc2c(C(=O)Nc3nn(C)c4ccccc34)cccc21 [Compound 80l]
5. Cn1cc(-c2cncc(O[C@H]3CCc4c(C(=O)Nc5cncc(Cl)c5)cccc43)c2)cn1 [Compound 19a]

1. 70.1
2. 102
3. 102
4. 100
5. 101

====

molecular target: PDGFR-α (Homo sapiens, UniProt P16234); assay: PDGFR-α in vitro kinase activity assay (HTRF kinEASE TK); assay type: biochemical; details: compound 10 nM; read-out: PDGFRα inhibition rate, 10 nM
Sequence (P16234 24-1089): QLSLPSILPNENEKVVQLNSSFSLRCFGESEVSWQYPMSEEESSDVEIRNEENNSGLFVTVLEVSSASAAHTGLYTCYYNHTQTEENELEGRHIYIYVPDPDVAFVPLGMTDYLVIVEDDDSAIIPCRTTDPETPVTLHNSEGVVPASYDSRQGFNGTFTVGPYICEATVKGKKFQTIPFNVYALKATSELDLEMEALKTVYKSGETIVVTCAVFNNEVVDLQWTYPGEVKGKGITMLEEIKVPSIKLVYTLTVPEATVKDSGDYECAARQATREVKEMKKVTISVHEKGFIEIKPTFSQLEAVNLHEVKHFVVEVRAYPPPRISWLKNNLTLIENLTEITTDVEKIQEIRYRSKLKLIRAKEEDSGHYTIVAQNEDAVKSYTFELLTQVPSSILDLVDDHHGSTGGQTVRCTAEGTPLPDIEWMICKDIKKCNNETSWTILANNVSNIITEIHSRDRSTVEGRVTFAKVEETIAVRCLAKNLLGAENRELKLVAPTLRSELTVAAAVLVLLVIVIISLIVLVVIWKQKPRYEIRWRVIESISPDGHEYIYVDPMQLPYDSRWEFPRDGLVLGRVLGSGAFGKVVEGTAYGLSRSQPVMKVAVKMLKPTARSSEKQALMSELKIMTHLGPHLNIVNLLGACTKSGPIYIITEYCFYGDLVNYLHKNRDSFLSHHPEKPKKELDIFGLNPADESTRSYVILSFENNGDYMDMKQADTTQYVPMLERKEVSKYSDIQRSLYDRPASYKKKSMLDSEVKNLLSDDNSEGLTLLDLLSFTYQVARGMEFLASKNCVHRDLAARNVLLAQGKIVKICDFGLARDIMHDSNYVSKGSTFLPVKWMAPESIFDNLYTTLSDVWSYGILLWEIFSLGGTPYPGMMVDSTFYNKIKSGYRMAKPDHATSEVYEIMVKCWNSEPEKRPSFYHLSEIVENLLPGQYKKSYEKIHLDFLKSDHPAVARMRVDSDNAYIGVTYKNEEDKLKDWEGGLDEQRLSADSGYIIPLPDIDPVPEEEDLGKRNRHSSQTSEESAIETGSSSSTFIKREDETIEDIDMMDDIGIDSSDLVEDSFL
Kindly supply the reported inhibition at 0.01 µM values for the records listed here.

Cc1cncc(NC(=O)c2cccc3c2CC[C@@H]3Nc2cncc(-c3cnn(C)c3)c2)c1 [Compound 14as]
91%
CN(c1cncc(-c2cnn(C)c2)c1)[C@H]1CCc2c(C(=O)Nc3cccc(C4CC4)c3)cccc21 [Compound 22a]
62.9%
Cn1ncc2ncc(N[C@H]3CCc4c(Nc5cc(C(C)(C)C)on5)cccc43)nc21 [Compound 86]
26.8%

Consider now this further compound.
// inhibition at 0.01 µM lookup, compound = Cn1cc(-c2cncc(N[C@H]3CCc4c(C(=O)Nc5cncc(Cl)c5)cccc43)c2)cn1 [Compound 14aa] , result: 72.7%

====

target: UniProt P10721; assay: KIT in vitro kinase activity assay (HTRF kinEASE TK); type: biochemical; settings: compound 10 nM; read-out: KIT inhibition rate, 10 nM
measurement.type: inhibition at 0.01 µM (%)
Answers are plain numbers, in %.

Answered examples (7):
Cc1cccc(C(=O)Nc2cccc3c2CC[C@@H]3Oc2cncc(-c3cnn(C)c3)c2)c1
13.3
Cc1cc(NC(=O)c2cccc3c2CC[C@@H]3Oc2cncc(-c3cnn(C)c3)c2)cc(C)n1 [Compound 19k]
21.8
Cc1cncc(NC(=O)c2cccc3c2CC[C@@H]3Oc2cncc(-c3cnn(C)c3)c2)c1 [Compound 19j]
14.5
CN(c1cncc(-c2cnn(C)c2)c1)[C@H]1CCc2c(C(=O)Nc3cccc(C4CC4)c3)cccc21 [Compound 22a]
5.8
Cc1cccc(NC(=O)c2cccc3c2CC[C@@H]3Nc2cncc(-c3cnn(C)c3)c2)c1
73
CN1CCc2nc(NC(=O)c3cccc4c3CC[C@@H]4Nc3cncc(-c4cnn(C)c4)c3)sc2C1 [Compound 14ba]
60.1
CN(c1cnc2cn(C)nc2c1)[C@H]1CCc2c(C(=O)Nc3cncc(Cl)c3)cccc21 [Compound 80k]
22

Consider now this further compound.
// inhibition at 0.01 µM lookup, compound = Cn1ncc2ncc(O[C@H]3CCc4c(C(=O)Nc5cncc(Cl)c5)cccc43)cc21 [Compound 76ac] , result: 12.6

====

biological target: KIT (Homo sapiens, UniProt P10721); assay: KIT in vitro kinase activity assay (HTRF kinEASE TK); format: biochemical; conditions: compound 100 nM; read-out: KIT inhibition rate, 100 nM
Sequence (P10721 26-976): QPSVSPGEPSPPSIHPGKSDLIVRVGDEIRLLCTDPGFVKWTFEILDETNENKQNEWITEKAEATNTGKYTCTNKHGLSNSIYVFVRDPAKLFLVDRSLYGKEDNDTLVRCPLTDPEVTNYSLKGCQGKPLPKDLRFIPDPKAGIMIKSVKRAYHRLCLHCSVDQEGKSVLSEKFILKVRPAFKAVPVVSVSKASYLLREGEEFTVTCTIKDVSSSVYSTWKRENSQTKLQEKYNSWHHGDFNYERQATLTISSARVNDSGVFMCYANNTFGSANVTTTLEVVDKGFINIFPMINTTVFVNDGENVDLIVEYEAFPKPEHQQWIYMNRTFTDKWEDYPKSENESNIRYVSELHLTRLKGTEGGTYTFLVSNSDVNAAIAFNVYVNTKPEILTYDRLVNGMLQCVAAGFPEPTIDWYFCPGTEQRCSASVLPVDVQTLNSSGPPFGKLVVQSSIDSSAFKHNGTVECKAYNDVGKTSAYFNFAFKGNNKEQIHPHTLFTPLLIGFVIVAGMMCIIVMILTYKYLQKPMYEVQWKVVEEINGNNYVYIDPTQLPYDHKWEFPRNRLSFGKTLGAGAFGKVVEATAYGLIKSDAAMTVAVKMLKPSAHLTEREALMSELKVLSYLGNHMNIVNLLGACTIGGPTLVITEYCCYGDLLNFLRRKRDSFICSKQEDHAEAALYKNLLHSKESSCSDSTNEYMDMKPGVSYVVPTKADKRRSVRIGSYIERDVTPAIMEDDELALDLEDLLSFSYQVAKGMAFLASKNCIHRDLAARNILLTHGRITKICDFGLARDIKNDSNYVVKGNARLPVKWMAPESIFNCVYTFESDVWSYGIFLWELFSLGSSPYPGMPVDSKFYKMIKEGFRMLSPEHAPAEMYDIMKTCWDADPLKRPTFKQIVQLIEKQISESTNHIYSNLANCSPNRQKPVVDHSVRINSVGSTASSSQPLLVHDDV
Classify on inhibition at 0.1 µM using LOW: < 50%; MID: ≥ 50% and < 90%; HIGH: ≥ 90%

Worked examples, 3 molecules total:
Cn1ncc2ncc(N[C@H]3CCc4c(C(=O)Nc5cccc(C6CC6)c5)cccc43)cc21 [Compound 73]
HIGH
Cn1cc(-c2cncc(N[C@H]3CCc4c(C(=O)Nc5ccc(C(F)(F)F)nc5)cccc43)c2)cn1 [Compound 14ah]
MID
CN1CCc2nc(NC(=O)c3cccc4c3CC[C@@H]4Oc3cncc(-c4cnn(C)c4)c3)sc2C1 [Compound 19f]
MID

Class? Entry: Cn1ncc2ncc(N[C@H]3CCc4c(Nc5cc(C(C)(C)C)on5)cccc43)nc21 [Compound 86]
MID

Class? Entry: CN(c1cnc2cn(C)nc2c1)[C@H]1CCc2c(C(=O)Nc3nn(C)c4ccccc34)cccc21 [Compound 80l]
HIGH

Class? Entry: CN1CCc2nc(NC(=O)c3cccc4c3CC[C@@H]4Nc3cncc(-c4cnn(C)c4)c3)sc2C1 [Compound 14ba]
HIGH

====

biological target: KIT (Homo sapiens); test: KIT in vitro kinase activity assay (HTRF kinEASE TK); format: biochemical; details: compound 10 nM; read-out: KIT inhibition rate, 10 nM
Please mark met if the recorded inhibition at 0.01 µM is equal to or greater than 40%, and not met if it falls below.

Worked examples, 2 compounds total:
CN(c1cnc2cn(C)nc2c1)[C@H]1CCc2c(C(=O)Nc3nn(C)c4ccccc34)cccc21 [Compound 80l]
met
Cn1cc(-c2cncc(N[C@H]3CCc4c(C(=O)Nc5cncc(Cl)c5)cccc43)c2)cn1 [Compound 14aa]
met

Evaluate Cn1cc(-c2cncc(O[C@H]3CCc4c(C(=O)Nc5cccc(C6CC6)c5)cccc43)c2)cn1 [Compound 19b] : inhibition at 0.01 µM at minimum 40%?
not met

Evaluate CN1CCc2ccc(NC(=O)c3cccc4c3CC[C@@H]4Nc3cncc(-c4cnn(C)c4)c3)cc2C1 [Compound 14ap] : inhibition at 0.01 µM at minimum 40%?
not met

Evaluate CN(C)Cc1cncc(NC(=O)c2cccc3c2CC[C@@H]3Oc2cncc(-c3cnn(C)c3)c2)c1 [Compound 19h] : inhibition at 0.01 µM at minimum 40%?
not met

Evaluate Cc1cccc(NC(=O)c2cccc3c2CC[C@@H]3Oc2cnc3cn(C)nc3c2)n1 [Compound 76bd] : inhibition at 0.01 µM at minimum 40%?
not met

====

Kindly supply the reported inhibition at 0.1 µM values for the records listed here.
target: PDGFR-α (Homo sapiens); assay: PDGFR-α in vitro kinase activity assay (HTRF kinEASE TK); format: biochemical; conditions: compound 100 nM; read-out: PDGFRα inhibition rate, 100 nM
Numbers only, in %.

CN(C)Cc1cncc(NC(=O)c2cccc3c2CC[C@@H]3Oc2cncc(-c3cnn(C)c3)c2)c1 [Compound 19h]
68.3
Cn1cc2ncc(N[C@H]3CCc4c(C(=O)Nc5nc(C6CC6)cs5)cccc43)cc2n1 [Compound 74h]
94.8
Cn1ncc2ncc(N[C@H]3CCc4c(Nc5cc(C(C)(C)C)on5)cccc43)nc21
96.5
Cn1ncc2ncc(N[C@H]3CCc4c(C(=O)Nc5cccc(C6CC6)c5)cccc43)cc21
100
Cn1cc(-c2cncc(O[C@H]3CCc4c(C(=O)Nc5cccc(C6CC6)c5)cccc43)c2)cn1 [Compound 19b]
97.1

Batch: inhibition at 0.1 µM for all items listed.
1. Cc1cccc(C(=O)Nc2cccc3c2CC[C@@H]3Oc2cncc(-c3cnn(C)c3)c2)c1
2. CN(c1cncc(-c2cnn(C)c2)c1)[C@H]1CCc2c(C(=O)Nc3cncc(Cl)c3)cccc21
3. Cc1cncc(NC(=O)c2cccc3c2CC[C@@H]3Nc2cncc(-c3cnn(C)c3)c2)c1 [Compound 14as]
4. CN1CCc2nc(NC(=O)c3cccc4c3CC[C@@H]4Oc3cncc(-c4cnn(C)c4)c3)sc2C1 [Compound 19f]
5. Cn1ncc2ncc(O[C@H]3CCc4c(C(=O)Nc5cncc(Cl)c5)cccc43)cc21 [Compound 76ac]

64
38.7
101
67.2
53.1
